assay: NCI Yeast Anticancer Drug Screen. Data for the wt1 strain (AID 149);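 also: 0% = growth of vehicle-treated wt1 cultures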; conditions: S. cerevisiae wt1 strain (SPY 50644) growth inhibition; at 11.0 µM; hits give high values
This is part of a sample that, as a whole, favours compounds with a hit. Of some 79,000 tested, about 15% had one in any assay.
test.readout: growth inhibition (%)
# number only, unit % dropped from output

Cc1nc2c(Br)cc(Br)cc2c(=O)n1-c1ccccc1NC1OCC(O)C(O)C1O (stereo not given) ... 9
Cc1cc2c(cc1C)[n+]([O-])c(-c1nc3ccccc3s1)c(N)[n+]2[O-] ... 17
C[CH2][Sn]([CH2]C)([O]C(=O)C(N)Cc1ccccc1)[O]C(=O)C(N)Cc1ccccc1 (stereo not given) ... 14

Using the record for COc1ccc(C(NCCNC(c2ccc(OC)c(OC)c2)c2cc3c(cc2O)OCO3)c2cc3c(cc2O)OCO3)cc1OC (stereo not given) , report its growth inhibition.
2

Suppose we examine the compound `CCCCOCn1c(=O)[nH]c(=O)c2cc(Br)ccc21` ; what growth inhibition value has been reported?
-58

What value of measured growth inhibition is listed for `O=C(NNc1ccccc1)c1ccc(Cl)c(Cl)c1` ?
1

Consider the compound shown here: Nc1nc(N)c2nc(CNc3ccc(C(=O)NC(CCC(=O)O)C(=O)O)cc3F)cnc2n1 (stereo not given) What is its recorded growth inhibition?
17

Any idea what its growth inhibition is? The compound is CCc1ccc2c(c1)N(CC(C)CN(C)C)c1ccccc1S2 (stereo not given)
-6

I would be grateful if you could share the reported growth inhibition for `CNC(=O)OCc1c(COC(=O)NC)c(-c2ccc(Cl)cc2)n2c1CCC2` .
-43

Would you mind telling me what growth inhibition value was observed for `COc1cc(O)c2c(c1O)C(=O)c1cc(C)ncc1C2=O` ?
36

====

test: NCI Yeast Anticancer Drug Screen. Data for the rad50 strain (AID 155);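 also: 0% = growth of vehicle-only cultures of the same strain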; conditions: S. cerevisiae rad50 strain growth inhibition; at 100.0 µM; hits give high values
This is part of a sample that, as a whole, favours compounds with a hit. Of some 79,000 tested, about 15% had one in any assay.
The entries below come with measured growth inhibition values attached.
Express the result in % but write the number alone.

Completed entries (count: 8):
CCOC(=O)c1[nH]cc(C)c1-c1cccn1-c1ccc(Cl)cc1[N+](=O)[O-] ... 90
Nc1ccn(C2OC(COP(=O)(O)O)C(O)C2O)c(=O)n1 (stereo unspecified) ... 52
O=C1CC(=O)c2ccccc21 ... 46
Oc1cccc2cc(Cl)cnc12 ... 97
CCN(CC)CCOc1cc(C)c2cc(Cc3ccccc3)ccc2n1 ... 92
O=C(/C=C/c1cc(Cl)cc(Cl)c1O)c1cccc(O)c1 ... 97
Oc1[nH]c2ccccc2c1N=NC(=S)N1CCCCC1 ... 98
Cc1ccc(NC(c2ccccc2)c2ccc3cccnc3c2O)cc1 (stereo unspecified) ... -3

Which growth inhibition value is on record for `COc1ccc2[nH]cc([C@@H]3C4CCC(C4)[C@H]3NCc3cccc(CN[C@H]4C5CCC(C5)[C@@H]4c4c[nH]c5ccc(OC)cc45)c3)c2c1` ?
97

What growth inhibition value was documented for this compound, `CN(C)[C@@H]1C(=O)C(C(N)=O)=C(O)[C@@]2(O)C(=O)C3=C(O)c4c(O)cccc4C[C@H]3C[C@@H]12` ?
99

Need growth inhibition of `CNCCCNc1c2ccccc2nc2cccc([N+](=O)[O-])c12` , thanks.
96

Data credit: PubChem BioAssay (NCI)
